Ref: paper PMC2728795

Below, each entry is listed with its recorded percent bound at 5 µM F-actin.
# assay-target: F-actin (freshly polymerized actin) (UniProt P68135 1-377)
# test-description: co-sedimentation

Examples with their reported percent bound at 5 µM F-actin follow.
GST(541–605, F572A)PRG (domain or fragment) GKPKSSSQSTFHIPLSPVEVKPGNVRNIIQHAENNQQYDAPEPGTQRLSTGSFPEDLLESDSSRS | ~25%
GST(541–605)PRG (domain or fragment) GKPKSSSQSTFHIPLSPVEVKPGNVRNIIQHFENNQQYDAPEPGTQRLSTGSFPEDLLESDSSRS | ~75%
GST(541–605, I569A)PRG (domain or fragment) GKPKSSSQSTFHIPLSPVEVKPGNVRNIAQHFENNQQYDAPEPGTQRLSTGSFPEDLLESDSSRS | ~25%
GST(541–605, E573A)PRG (domain or fragment) GKPKSSSQSTFHIPLSPVEVKPGNVRNIIQHFANNQQYDAPEPGTQRLSTGSFPEDLLESDSSRS | ~25%

Turning to the following binder.
Entry GST(541–605, I568A)PRG (domain or fragment) GKPKSSSQSTFHIPLSPVEVKPGNVRNAIQHFENNQQYDAPEPGTQRLSTGSFPEDLLESDSSRS — recorded percent bound at 5 µM F-actin = ~25%
